SYSTEM TESTED: Calmodulin-1 (Homo sapiens) (UniProt P0DP23)
RUN DESCRIPTION: small molecules binding calmodulin-1 with EGTA – biochemical, small-molecule microarray, Cy5-labelled CALM1, profiling panel (AID 1111);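 further: labelled calmodulin applied in Tris saline Tween buffer holding calcium plus EGTA and DTT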
MEASUREMENT CONDITIONS: Cy5-CALM1 binding fluorescence, higher = more signal
Please assign a class to every record based on measured composite z-score, with ranges class 0 (below 0.3), class 1 (0.3 to below 0.6), class 2 (0.6 or more)

CCOC(=O)C[C@H]1[C@H](OC(=O)c2ccccc2-c2ccccc2)[C@@H](NC(=O)c2ccccc2)c2cc(OCCCO)ccc2N1C(=O)Cc1ccc(OC)cc1; class 0
C=CCC(OC(C)=O)[C@@H]1[C@@H](N(Cc2ccc(-c3ccccc3)cc2)C(=O)c2cccc3ccccc23)c2cc(OCCCO)ccc2N1C(=O)c1ccc2ccccc2n1 (stereo partly specified); class 1
CCCN1C(=O)[C@@H]2Cc3c([nH]c4ccccc34)[C@@H](c3cccc(O)c3)N2C1=O; class 0
O=C1c2ccccc2[C@](Cc2ccccc2I)(C(=O)NC2CC2)[C@H](c2ccc(CO)cc2)N1Cc1ccccc1Cl; class 2
COCCCNC(=O)[C@@]1(Cc2ccccc2CN=[N+]=[N-])N=C(c2ccc(OCCCO)cc2)O[C@H]1c1ccccc1N=[N+]=[N-]; class 2

Bin? O=C1O[C@H](c2ccccc2)[C@H](c2ccccc2)N2[C@H]1[C@@H](C(=O)N1CCCCCCC1)[C@]1(C(=O)Nc3ccccc31)[C@H]2c1ccc(O)cc1
class 2

Where would CCOC(=O)C1=CC[C@@H](c2ccccc2)N(S(=O)(=O)c2ccc(C)cc2)[C@H]1C=C(C)C land among the classes by reported composite z-score?
class 2

Returns: class label. Input: COc1ccc(CCNC(=O)[C@@H]2c3ccccc3C(=O)N(Cc3ccccc3)[C@H]2c2ccc(CO)cc2)cc1
class 0

Using the reported composite z-score, which band applies to COCCCNC(=O)[C@@H]1c2ccccc2C(=O)N(Cc2cc(F)cc(C(F)(F)F)c2)[C@H]1c1ccc(CO)cc1 ?
class 0

Dear colleague, I would appreciate it if you could identify the bin for CCOC(=O)C[C@H]1[C@H](OC(=O)Cc2ccc3c(c2)OCO3)[C@@H](NC(=O)c2ccccc2)c2cc(OCCCO)ccc2N1C(=O)c1ccccc1 and reply at your convenience.
class 1

Given COC(=O)[C@]1(Cc2ccccc2N=[N+]=[N-])N=C(c2ccc(OCCCO)cc2)O[C@@H]1c1ccccc1 , name the class its composite z-score places it in.
class 0

# bin label for COc1ccc([Si](C)(C)[C@H]2[C@H](CCn3cc(CCO)nn3)O[C@@]3(C(=O)N(Cc4cccc(N5C(=O)c6cccc7cccc5c67)c4)c4ccccc43)[C@@H]2C)cc1
class 1

----------
Catalogue of composite z-score readings, one per entry.
Test system: Sonic hedgehog protein (Shh)
RUN DESCRIPTION: Sonic hedgehog microarray binding compounds – biochemical, small-molecule microarray, 635/667 nm fluorescence, primary screen (AID 1151);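 further: Shh protein binding to compounds spotted on small-molecule microarray slides; score combines spot fluorescence intensity with signal-to-noise across triplicate slides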
MEASUREMENT CONDITIONS: 635 nm fluorescence, higher = more signal
Answer as a number with no unit attached.

COc1ccc(C#Cc2ccc3c(c2)[C@]2(C(=O)N3)[C@H](C(N)=O)[C@H]3C(=O)O[C@H](c4ccccc4)[C@H](c4ccccc4)N3[C@@H]2c2ccc(O)cc2)cc1; 0.794

Which composite z-score value belongs to COc1ccc(C(=O)Nc2ccc(CN3C(=O)[C@@]4(O[C@@H](CC(=O)N5Cc6ccccc6C[C@H]5CO)[C@H]([Si](C)(C)c5ccc(OC)cc5)[C@H]4C)c4ccccc43)cc2)cc1 ?
1.62

Request the reported composite z-score associated with CCCC[C@H]1OB(O)C[C@H]2C1=C(COc1ccccc1)Cn1c(=O)n(-c3ccccc3)c(=O)n12
1.64
